Entries with reported IC50 on Collagenase 3 (Homo sapiens)
readout-type: IC50 (nM)

Example results:
> print(dat)
                                   compound                 tested.system  observed.result
1  COc1ccc(S(=O)(=O)N2CCOCCSC(C)(C)[C@@H]2C(=O)NO)cc1  Collagenase 3 (Homo sapiens)              0.2
2  COc1ccc(S(=O)(=O)N2CCNCC2C(=O)NO)cc1 (centres undefined)  Collagenase 3 (Homo sapiens)              1.7

(a) COc1ccc(S(=O)(=O)N2CCCSCC2C(=O)NO)cc1 (centres undefined)
(b) COc1ccc(S(=O)(=O)N2CCOCCS(=O)(=O)C(C)(C)[C@@H]2C(=O)NO)cc1
Input: Determine, for a and b , which has the greater value of IC50. State your choice using its label.
Output: b
(b: 3.3 nM, a: 1.9 nM)

(I) CC1(C)[C@H](C(=O)NO)N(S(=O)(=O)c2ccc(Br)cc2)CCCS1(=O)=O
(II) CC1(C)SCCCN(S(=O)(=O)c2ccc(Br)cc2)[C@H]1C(=O)NO
(III) Cc1cc(Br)ccc1S(=O)(=O)N1CCCSC(C)(C)[C@@H]1C(=O)NO
(IV) COc1ccc(S(=O)(=O)N2CCCSC[C@@]2(C)C(=O)NO)cc1
(V) COc1ccc(S(=O)(=O)N2CCS(=O)(=O)CC2C(=O)NO)cc1 (centres undefined)
Input: Given 5 compounds, produce a descending ranking by IC50. List the labels in the requested order.
Output: V, III, IV, I, II
(V: 18.4 nM, III: 9.2 nM, IV: 4 nM, I: 2.7 nM, II: 1.3 nM)

(A) CCCCCc1ccc(S(=O)(=O)N2CCCSC(C)(C)[C@@H]2C(=O)NO)cc1
(B) COc1ccc(S(=O)(=O)N2CCSCC2C(=O)NO)cc1 (centres undefined)
Input: Determine, for A and B , which has the greater value of IC50. State your choice using its label.
Output: A
(A: 2.1 nM, B: 1 nM)

Attribution: ChEMBL document CHEMBL1132690
